Would you mind telling me the reported EC50 of each entry?
biological target: Histamine H3 receptor (Homo sapiens); test: Agonist activity at human H3R expressed in HEK293 cells harboring glosensor-22F cAMP plasmid DNA assessed as inhibition of forskolin-stimulated cAMP accumulation preincubated with cells followed by forskolin addition measured after 10 mins by luminescence assay; assay type: functional, cell-based; details: read-out: EC50
Sequence (Q9Y5N1 whole entry): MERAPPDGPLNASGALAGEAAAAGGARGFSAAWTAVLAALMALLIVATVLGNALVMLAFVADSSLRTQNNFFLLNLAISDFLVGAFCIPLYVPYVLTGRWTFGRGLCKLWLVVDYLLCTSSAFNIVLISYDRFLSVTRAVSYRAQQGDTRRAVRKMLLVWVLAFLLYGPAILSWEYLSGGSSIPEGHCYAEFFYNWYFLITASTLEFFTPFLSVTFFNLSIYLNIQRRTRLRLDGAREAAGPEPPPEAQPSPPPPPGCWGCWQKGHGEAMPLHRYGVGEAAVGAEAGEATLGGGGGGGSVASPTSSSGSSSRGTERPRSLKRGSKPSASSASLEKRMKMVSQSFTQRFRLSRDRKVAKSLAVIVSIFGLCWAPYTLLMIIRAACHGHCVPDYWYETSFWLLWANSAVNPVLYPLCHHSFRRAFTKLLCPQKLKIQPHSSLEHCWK
Reply with just the number (in nM).

Input line: Reported EC50, compound COc1ccc(C2=C(c3ccccc3)C3(C=CC(=O)C=C3)N(C(C(=O)NC3CCCCC3)c3cc4c(cc3Br)OCO4)C2=O)cc1 (configuration not stated) : ____
Output line: 14.4

Input line: Reported EC50, compound COc1cc(N2C(=O)C(=Cc3ccccc3)C2(C(=O)NC2CCCCC2)c2ccc(F)cc2)cc(OC)c1OC (configuration not stated) : ____
Output line: 104

Input line: Reported EC50, compound `O=C1C=C[C@]23C(c4ccccc4)=CC(=O)N2[C@H](c2cc(F)cc(F)c2)C(=O)N[C@@H]3C1` : ____
Output line: 10

Input line: Reported EC50, compound COc1ccc(NC2(c3cc(F)cc(F)c3)C(=O)N(C3CCCCC3)C(=O)/C2=C/c2ccccc2)cc1 (configuration not stated) : ____
Output line: 3.8

Input line: Reported EC50, compound `O=C1C=C[C@]23C(c4ccccc4)=CC(=O)N2[C@H](c2ccc(C(F)(F)F)cc2)C(=O)N[C@@H]3C1` : ____
Output line: 94

Input line: Reported EC50, compound COc1ccc(NC2(c3ccc(Br)cc3)C(=O)N(C(C)(C)C)C(=O)/C2=C/c2ccccc2)cc1OC (configuration not stated) : ____
Output line: 1.3

Input line: Reported EC50, compound COc1ccc(NC2(c3cccc(Cl)c3)C(=O)N(C3CCCCC3)C(=O)/C2=C/c2ccccc2)cc1OC (configuration not stated) : ____
Output line: 2.7

Input line: Reported EC50, compound COc1ccc(NC2(c3ccc(F)cc3)C(=O)N(C(C)(C)C)C(=O)/C2=C/c2ccccc2)cc1 (configuration not stated) : ____
Output line: 1.3

Input line: Reported EC50, compound COc1cc(N2C(=O)C(=Cc3ccccc3)C2(C(=O)NC(C)(C)C)c2ccccc2)cc(OC)c1OC (configuration not stated) : ____
Output line: 0.1

Input line: Reported EC50, compound O=C1C=CC2(C=C1)C(c1ccccc1)=CC(=O)N2C(C(=O)NC1CCCCC1)c1ccc(Cl)cc1 (configuration not stated) : ____
Output line: 104

Input line: Reported EC50, compound COC1=CC2(C=C(OC)C1=O)C(c1ccccc1)=C(c1ccc(C(F)(F)F)cc1)C(=O)N2C(C(=O)NC1CCCCC1)c1ccc(OC)c(OC)c1OC (configuration not stated) : ____
Output line: 6.7

Input line: Reported EC50, compound COc1ccc(NC2(c3ccccc3)C(=O)N(C(C)(C)C)C(=O)/C2=C/c2ccccc2)cc1 (configuration not stated) : ____
Output line: 3

Input line: Reported EC50, compound COc1cc(N2C(=O)C(=Cc3ccccc3)C2(C(=O)NC(C)(C)C)c2ccc(Cl)c(F)c2)cc(OC)c1OC (configuration not stated) : ____
Output line: 1.1

Input line: Reported EC50, compound COc1ccc(N2C(=O)/C(=C\c3ccccc3)C2(C(=O)NC(C)(C)C)c2ccc(Br)cc2)cc1OC (configuration not stated) : ____
Output line: 24

Input line: Reported EC50, compound COc1cc(NC2(c3ccccc3Cl)C(=O)N(C(C)(C)C)C(=O)/C2=C/c2ccccc2)cc(OC)c1OC (configuration not stated) : ____
Output line: 187

Input line: Reported EC50, compound `N=C(N)SCCc1cnc[nH]1` : ____
Output line: 0.08

Input line: Reported EC50, compound `O=C1C=C[C@]23C(c4ccccc4)=CC(=O)N2[C@H](c2ccc([N+](=O)[O-])cc2)C(=O)N[C@@H]3C1` : ____
Output line: 0.3
